Listed below: growth values for each entry.
- Tested on: U251 CNS
- METHOD: NCI-60 one-dose screen, 48 h (100 = growth as untreated, 0 = no growth, -100 = all killed)
- RECORDED CONDITIONS: 10 µM
Compounds without any hit were thinned out: in the full panel of roughly 83,000, 20% have a hit.
PARAMETER MEASURED: growth (%)

> print(dat)
                                    compound  parameter.measured  recorded.number
 1  CC(=O)c1c(O)cc2c3c1OC(C)(C)C1CCC(C)(CC31)O2 (stereo not drawn)              growth              102
 2  CCN(CC)CCOC(=O)c1ccc(N=Nc2ccc(O)c(OC)c2)cc1              growth             87.1
 3  CC(C)C[C@H](NC(=O)Cn1ccc(Nc2ccccc2)cc1=O)B(O)O              growth             65.9
 4  COc1cc(-c2cc(-c3cc(OC)c(OC)c(OC)c3)nc3nc(N)[nH]c(=O)c23)ccc1Oc1ccnc2cc(Cl)ccc12              growth               23
 5                           CC1(C)CNC(=O)N1              growth             97.4
 6  CCCN(CCC)CCCNC(=O)c1cc2c(-c3ccc(OC)c(OC)c3)nn(C)c2s1              growth             9.87
 7  CC[C@@]1(C(N)=O)CC2C=CC1C2 (stereo partly drawn)              growth              113
 8  CCOC(=O)CNC(=O)Nc1ccc(Oc2ccc(NC(=O)NCC(=O)OCC)cc2)cc1              growth             93.8
 9  C=CCn1c(C)nc2cc(Nc3nc(Nc4ccc5nc(C)n(CC=C)c5c4)c4ccccc4n3)ccc21              growth            -90.7
10  CCCCCCCCCCN=C(c1ccc(N(C)C)cc1)c1ccc(N(C)C)cc1              growth             21.3
11  CC(C)CCN(CCCNc1c2c(nc3cc(Cl)ccc13)CCCC2)CCC(C)C              growth             59.4
12         CCSc1nc2c([nH]1)c(=O)n(C)c(=S)n2C              growth              105
13  O=C(NNc1nc(N2CCCC2)nc(N2CCCC2)n1)c1ccccc1              growth             98.5
14  O=c1oc2cc(OS(=O)(=O)C3CC3)ccc2c2c1CCCCCC2              growth             79.1
15    CCN(Cc1ccccc1)C1CCN(Cc2cc(Br)ccc2O)CC1              growth             43.9
16        c1ccc(C2CCCCC2)c(OCCCCCN2CCNCC2)c1              growth             26.1
17  Cc1ccc(-c2cc(C(=O)Nc3ccc(S(=O)(=O)N4CCCCC4)cc3)[nH]n2)c(O)c1              growth             39.3
18  C[C@@H]1N=C(c2ccc(Br)cc2)Nc2nc3ccccn3c2C1=O              growth               54
19  COc1ccc(/C=C(\c2cc(OC)c(OC)c(OC)c2)c2nnc(-c3cccs3)o2)cc1              growth             55.7
20  CCCCNC(=O)Oc1ccc(/C(=C(\C)c2ccc(OC)cc2)c2ccc(OCCN3CCCCC3)cc2)cc1              growth             38.9
21  O=c1[nH]c(=O)n(C2C[C@@H](O)[C@@H](CO)O2)cc1F (stereo partly drawn)              growth             34.2
22  Cc1cc2cc3c(=O)[nH]c(=O)cc-3n(CC(O)C(O)C(O)CO)c2cc1C (stereo not drawn)              growth              104
23  CNC(=O)c1cc(Oc2ccc(NC(=O)Nc3ccc(Cl)c(OC4CCCCC4)c3)c(F)c2)ccn1              growth             38.8
24  CCOC(=O)Nc1ccc2c(c1)C(=O)N(CCOC)c1ccccc1O2              growth             39.3
25   O=c1ccc2nc(-c3ccccc3)nn(-c3ccccc3)c-2c1              growth             66.2
26        O=C1/C(=C/c2ccc(O)cc2O)N=C2SCCCN12              growth             99.2
27  COC1OC2COC(c3ccccc3)OC2C(=O)C1NC(=O)c1ccccc1 (stereo not drawn)              growth              109
28  CCN(CC)CC(O)CNc1ccnc2cc(Cl)c(Cl)cc12 (stereo not drawn)              growth             75.4
29              Fc1ccc(-c2cc(C(Cl)Cl)no2)cc1              growth              108
30  COc1cccc(C(=O)NNc2nc(N3CCN(C4CCCCC4)CC3)nc(N3CCN(C(c4ccccc4)c4ccccc4)CC3)n2)c1              growth             32.6
31  N#C/C(=C/c1cc([N+](=O)[O-])ccc1Cl)C(N)=O              growth             93.6
32  O=S(=O)(NC1c2ccccc2Oc2ccccc21)c1cc(Cl)ccc1Cl              growth             95.7
33  COc1ccc(S(=O)(=O)Nc2cc(/C=C\c3cc(OC)c(OC)c(OC)c3)ccc2OC)cc1              growth            0.353
34  CCOC(=O)Cn1nnc(-c2ccc(OCc3ccccc3F)cc2)n1              growth               99
35  Cn1c([N+](=O)[O-])cnc1/C=C1\Oc2ccc(Br)cc2C1=O              growth            -29.6
36  Cc1cc(/C=C2\SC(=Nc3ccccc3)N(C3CCCC3)C2=O)c(C)n1-c1ccc(Cl)cc1              growth            -91.1
37     CC(=O)OCC(COC(C)=O)(COC(C)=O)COC(C)=O              growth              103
38  CCc1c(C(=O)NCc2c(O)ccc3cccc(O)c23)[nH]c(C)c1C(C)=O              growth             33.4
39        O=C(O)c1cc(C(F)(F)F)cc(C(F)(F)F)c1              growth              103
40      CCCc1c(C)nc2scc(-c3ccc(Cl)cc3)n2c1=O              growth             97.2
41  COc1cc(C2CC(=O)Nc3c2c(C)nn3-c2nc3ccccc3[nH]2)cc(OC)c1O (stereo not drawn)              growth             53.3
42  CS(=O)(=O)Nc1ccc([N+](=O)[O-])cc1Oc1ccccc1              growth             90.4
43  C#CCn1c(-c2cccc(OCCCCl)c2)nc2c1c(=O)n(C)c(=O)n2C              growth             90.7
